Please respond with reported Ryegrass, Italian plant response rating for every item in the list.
- Tested on: Italian ryegrass (Lolium multiflorum)
- protocol-details: Test B pre-/postemergence plant response
- Type: in vivo
- assay-context: 8 g ai/ha, postemergence; 0-100 scale
Answers are plain numbers.

Please give Ryegrass, Italian plant response rating, item by item, for the list that follows.
1. CCc1cc(-c2ccc(Cl)cc2)nn1-c1c(OC(=O)C(C)(C)C)cnn(C)c1=O
2. CCc1c(C)c(-c2ccc(Cl)cc2)nn1-c1c(O)cnn(C)c1=O

80
70

Hello, I would appreciate it if you could give Ryegrass, Italian plant response rating for each entry below.
1. CCc1cc(-c2ccc(F)cc2)nn1-c1c(O)cnn(C)c1=O
2. Cc1cc(-c2ccc(Br)cc2)nn1-c1c(OC(=O)C2CC2)cnn(C(=O)C2CC2)c1=O

1. 60
2. 80

Quick check: Ryegrass, Italian plant response rating of Cc1nn(C)c(=O)c(-n2nc(-c3ccc(C(F)(F)F)cc3)cc2C)c1O ?
30
